# Test system: Pyricularia grisea
# assay-comment: Antifungal activity against Magnaporthe grisea infected rice plant assessed as logarithm of fungal control value at 100 ppm after 5 days
# Type: functional
measured-endpoint: Activity
Please reply with the number alone, leaving off any unit.

Response field Activity (Pyricularia grisea) for item "COc1ccc(NC(=O)Cc2cs/c(=N\c3ccccc3F)n2C)cc1" : 1.99

Tested system Pyricularia grisea; Activity recorded for "CCc1ccc(NC(=O)Cc2cs/c(=N\c3ccc(C)cc3Cl)n2C)cc1" was 2

Value (Activity, Pyricularia grisea) for record "COc1ccc(/N=c2/scc(CC(=O)Nc3ccc(OC(F)(F)F)cc3)n2C)cc1" = 1.4

Hey, Pyricularia grisea data for "CCc1ccc(NC(=O)Cc2cs/c(=N/c3ccc(-c4ccccc4)cc3)n2C)cc1" : Activity came out at 1.99

Sample "CCOc1ccc(NC(=O)Cc2cs/c(=N\c3cccc(Br)c3)n2C)cc1" , system: Pyricularia grisea. Its Activity is 1.91

Item: "Cn1c(CC(=O)Nc2ccc(OC(F)(F)F)cc2)cs/c1=N\c1cccc(C(F)(F)F)c1" | System: Pyricularia grisea | Activity: 1.7

Per the reported Pyricularia grisea data, "Cn1c(CC(=O)Nc2ccc(Cl)cc2)cs/c1=N\c1cccc(F)c1" has Activity of 1.96

Value sought: Activity, system Pyricularia grisea, item "CC(C)Oc1ccc(/N=c2/scc(CC(=O)Nc3ccc(C(F)F)cc3)n2C)cc1" . Result: 1.7

Form: item "CCc1ccc(NC(=O)Cc2cs/c(=N/c3ccc(Oc4ccccc4)cc3)n2C)cc1" ; test system Pyricularia grisea; Activity: 1.98

Given the compound "CCc1ccc(NC(=O)Cc2cs/c(=N\c3ccc(Br)cc3F)n2C)cc1" and test system Pyricularia grisea, the measured Activity is 2
